As shown below, each of these variants has a reported protein stability index value.
B1: RPAIN (parent)
chain: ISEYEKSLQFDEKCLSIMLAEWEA

# Variants of: B1
# experiment-summary: protein stability index of a GFP-peptide fusion (GPS, HEK-293T) (PSI 1-6); higher = more stable;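 further: lentivirally expressed fusions sorted by FACS into six bins by GFP to DsRed ratio, PSI derived from sequencing read proportions per bin multiplied by bin number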
# experimental-setup: c terminus: a fixed tail appended
Would you mind answering with just the numeric figure?

Looking up F10H , I see its protein stability index listed as 3.33

Looking up A20S , I see its protein stability index listed as 1.88

Looking up W22D , I see its protein stability index listed as 3.88

Looking up A24E , I see its protein stability index listed as 1.87

Looking up C14L , I see its protein stability index listed as 1.44

Looking up I1Q , I see its protein stability index listed as 2.64

Looking up L8M , I see its protein stability index listed as 2.29

Looking up L8G , I see its protein stability index listed as 3.44

Looking up S16C , I see its protein stability index listed as 1.91

Looking up M18Q , I see its protein stability index listed as 2.75

Looking up E3T , I see its protein stability index listed as 2.91

Looking up L19V , I see its protein stability index listed as 2.64

Looking up M18S , I see its protein stability index listed as 2.56

Looking up W22C , I see its protein stability index listed as 1.5

Looking up S2M , I see its protein stability index listed as 2.15

Looking up Y4W , I see its protein stability index listed as 1.92

Looking up C14H , I see its protein stability index listed as 2.81

Looking up A20T , I see its protein stability index listed as 2.25

Looking up E12R , I see its protein stability index listed as 2.33

Looking up D11P , I see its protein stability index listed as 1.99

Looking up W22G , I see its protein stability index listed as 1.72

Looking up A20G , I see its protein stability index listed as 2.01

Looking up E23N , I see its protein stability index listed as 2.14
